Below: a set of entries, each annotated with reported log10(solubility at 18 h).
experiment: physchem; details: pbs, pH 7.4, aqueous buffer
Base-10 log of solubility at 18 h, unit µM.

>  <Molecule>
O=c1onc(-c2ccccc2)o1 [compound 24, 3-Phenyl-1,4,2-dioxazol-5-one]

>  <log10(solubility at 18 h)>
0.88

$$$$
>  <Molecule>
O=c1oc(/C=C/c2ccc(C(F)(F)F)cc2)ns1 [compound 18]

>  <log10(solubility at 18 h)>
-1.00

$$$$

Kindly note the recorded log10(solubility at 18 h) for O=c1oc(C#Cc2ccccc2)ns1 [compound 20, 5-(Phenylethynyl)-1,3,4-oxathiazol-2-one] , which is 1.40

Kindly note the recorded log10(solubility at 18 h) for O=c1oc(/C=C/C(F)(F)F)ns1 [compound 22] , which is 1.64

Kindly note the recorded log10(solubility at 18 h) for O=C(c1ccccc1)c1nsc(=O)o1 [compound 19, 5-Benzoyl-1,3,4-oxathiazol-2-one] , which is 0.76
